system under test: T1, MPP1, Q00013
T1 sequence (Q00013 66-162, limits assumed, looked up): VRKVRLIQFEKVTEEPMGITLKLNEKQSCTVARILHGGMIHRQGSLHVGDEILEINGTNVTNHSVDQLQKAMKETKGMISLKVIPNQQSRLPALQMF
method: holdup assay
Set-up: key: below the threshold = too weak to quantify, mostly under pKd 3.1 to 4
test settings: plain residues with an end cap or a label only (N-terminal biotin on a linker: ttds)
measured parameter: pKd

Study these solved cases before continuing.
[[record]]
binder = "SSRTRRETQL [HPV16-E6, P03126]"
measured_parameter = "pKd"
measured_result = "below the threshold"

[[record]]
binder = "SVWLRKETRV [CYSLTR2, Q9NS75]"
measured_parameter = "pKd"
measured_result = 6.03

[[record]]
binder = "RSLEEEESQL [GRASP, Q7Z6J2]"
measured_parameter = "pKd"
measured_result = "below the threshold"

[[record]]
binder = "SRPQRTQTQV [HPV67-E6, A4U7F2]"
measured_parameter = "pKd"
measured_result = 5.26

[[record]]
binder = "STLTIFETAL [ABCC4, O15439]"
measured_parameter = "pKd"
measured_result = "below the threshold"

[[record]]
binder = "PKTPPTDTSV [KIR3DL3, Q8N743]"
measured_parameter = "pKd"
measured_result = "below the threshold"


// below: pKd requested for another binder
Identify pKd associated with the binder QSARYRDTEL [TJP2, Q9UDY2]
below the threshold
